The measurements presented in this section are drawn from patent US9309224B2.

Molecular target: unphosphorylated c-FMS kinase (uFMS, Seq. ID no. 1) (Homo sapiens)
Sequence (P07333 538-972): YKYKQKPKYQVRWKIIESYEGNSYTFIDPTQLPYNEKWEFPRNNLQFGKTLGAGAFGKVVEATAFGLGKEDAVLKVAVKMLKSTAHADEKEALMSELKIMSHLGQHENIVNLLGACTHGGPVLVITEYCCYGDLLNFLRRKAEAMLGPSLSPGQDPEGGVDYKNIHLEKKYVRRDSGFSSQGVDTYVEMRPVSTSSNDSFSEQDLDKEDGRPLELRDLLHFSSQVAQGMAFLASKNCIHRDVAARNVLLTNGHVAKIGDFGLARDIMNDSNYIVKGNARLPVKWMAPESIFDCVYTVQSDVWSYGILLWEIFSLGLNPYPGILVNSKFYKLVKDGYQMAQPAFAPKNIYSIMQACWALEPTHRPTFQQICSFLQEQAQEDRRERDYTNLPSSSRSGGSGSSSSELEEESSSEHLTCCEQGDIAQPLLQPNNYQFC
Assay: uFMS kinase assay (pyruvate kinase/lactate dehydrogenase coupled)
Details: ATP 500 μM
Below, each entry is listed with its recorded IC50.
Reported endpoint: IC50

# Structure, Study target, Endpoint value
measured = [
    ("CN(C)CC(=O)Nc1cc(Oc2ccc(NC(=O)NC(=O)C(C)(C)C)nc2)ccn1", "unphosphorylated c-FMS kinase (uFMS, Seq. ID no. 1) (Homo sapiens)", "10 to 100 nM"),
    ("CC(=O)Nc1cc(Oc2ccc(NC(=O)NC(=O)C3(C)CC3)nc2)ccn1", "unphosphorylated c-FMS kinase (uFMS, Seq. ID no. 1) (Homo sapiens)", "10 to 100 nM"),
    ("CCC(=O)Nc1cc(Oc2ccc(NC(=O)NC(=O)C3(C)CC3)nc2)ccn1", "unphosphorylated c-FMS kinase (uFMS, Seq. ID no. 1) (Homo sapiens)", "< 10 nM"),
    ("CC(=O)Nc1cc(Oc2ccc(NC(=O)NC(=O)C3(C(F)(F)F)CCC3)nc2)ccn1", "unphosphorylated c-FMS kinase (uFMS, Seq. ID no. 1) (Homo sapiens)", "10 to 100 nM"),
    ("COC1(C(=O)NC(=O)Nc2ccc(Oc3ccnc(NC(=O)C4CC4)c3)cn2)CC1", "unphosphorylated c-FMS kinase (uFMS, Seq. ID no. 1) (Homo sapiens)", "< 10 nM"),
    ("Cc1nc(NC(=O)NC(=O)C(C)(C)C)ccc1Oc1ccnc(NC(=O)N2CCCC2)c1", "unphosphorylated c-FMS kinase (uFMS, Seq. ID no. 1) (Homo sapiens)", "< 10 nM"),
    ("CC(C)NC(=O)c1cc(Oc2ccc(NC(=O)NC(=O)C(C)(C)C)nc2)ccn1", "unphosphorylated c-FMS kinase (uFMS, Seq. ID no. 1) (Homo sapiens)", "100 to 1000 nM"),
    ("CC(C)(C)C(=O)NC(=O)Nc1ccc(Oc2ccnc(NC(=O)CN3CCCC3)c2)cn1", "unphosphorylated c-FMS kinase (uFMS, Seq. ID no. 1) (Homo sapiens)", "10 to 100 nM"),
    ("CNC(=O)c1cc(Oc2ccc(NC(=O)NC(=O)C(C)(C)OC)nc2)ccn1", "unphosphorylated c-FMS kinase (uFMS, Seq. ID no. 1) (Homo sapiens)", "10 to 100 nM"),
]
